// data source = ChEMBL document CHEMBL4138085

Biological target: Albumin (Homo sapiens, UniProt P02768)
Sequence (P02768 whole entry): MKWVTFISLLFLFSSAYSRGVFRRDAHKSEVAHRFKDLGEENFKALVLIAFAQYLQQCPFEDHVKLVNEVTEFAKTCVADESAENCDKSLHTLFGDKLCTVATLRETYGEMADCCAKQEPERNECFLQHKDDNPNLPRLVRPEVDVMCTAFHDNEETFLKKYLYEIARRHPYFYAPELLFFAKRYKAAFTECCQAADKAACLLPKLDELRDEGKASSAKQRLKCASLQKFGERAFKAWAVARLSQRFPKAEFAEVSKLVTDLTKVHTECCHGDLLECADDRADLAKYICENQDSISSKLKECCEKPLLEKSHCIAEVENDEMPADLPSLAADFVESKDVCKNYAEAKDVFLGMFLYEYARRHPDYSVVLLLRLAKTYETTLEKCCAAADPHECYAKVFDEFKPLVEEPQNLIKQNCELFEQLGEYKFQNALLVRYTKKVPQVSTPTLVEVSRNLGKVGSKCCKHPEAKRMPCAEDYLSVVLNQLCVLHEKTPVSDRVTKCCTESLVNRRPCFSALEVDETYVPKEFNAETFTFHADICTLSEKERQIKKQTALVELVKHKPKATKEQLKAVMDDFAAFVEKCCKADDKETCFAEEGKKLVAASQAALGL
Experiment: Binding affinity to human serum albumin at 313 K by scatchard plot analysis
Assay type: ADME
Conditions: isolated protein
MEASUREMENT_NAME: Kb (M⁻¹)
Numeric only. Scale: M⁻¹

Need Kb of CC(=O)Nc1ccc(S(=O)(=O)Cc2nc3ccccc3n2Cc2ccc(F)cc2)cc1 , thanks.
41600

Continuing:
Need Kb of CC(=O)Nc1ccc(S(=O)(=O)Cc2nc3ccccc3n2Cc2ccc(Cl)cc2Cl)cc1 , thanks.
42100

----------
Target: Albumin (Homo sapiens)
Assay: Binding affinity to human serum albumin at 293 K by modified Stern-Volmer method
Assay type: ADME
Details: isolated protein
MEASUREMENT_NAME: Ka (M⁻¹)
Numeric only. Scale: M⁻¹

So what Ka did CC(=O)Nc1ccc(S(=O)(=O)Cc2nc3ccccc3n2Cc2ccc(F)cc2)cc1 get with Albumin (Homo sapiens)?
36900

Moving on to another molecule below.
So what Ka did CC(=O)Nc1ccc(S(=O)(=O)Cc2nc3ccccc3n2Cc2ccc(Cl)cc2Cl)cc1 get with Albumin (Homo sapiens)?
10800

----------
Test system: Escherichia coli
Experiment: Antibacterial activity against Escherichia coli ATCC 8099 after 24 hrs by NCCLS two fold broth microdilution method
Assay type: functional
Conditions: ATCC 8099, 24 h
MEASUREMENT_NAME: log10 of MIC (log10 of the value in µg/mL)
# log10 transformed; quantity=MIC; unit=µg/mL

Here are 5 compounds together with their reported answers.
Need log10 of MIC of CCn1cc(C(=O)O)c(=O)c2cc(F)c(N3CCNCC3)cc21 , thanks.
0.00

Need log10 of MIC of Nc1ccc(S(=O)(=O)Cc2nc3ccccc3n2Cc2ccc(F)cc2)cc1 , thanks.
2.41

Need log10 of MIC of CCCn1c(CS(=O)(=O)c2ccc(N)cc2)nc2ccccc21 , thanks.
1.81

Need log10 of MIC of CC(=O)Nc1ccc(S(=O)(=O)Cc2nc3ccccc3n2Cc2cccc(Cl)c2)cc1 , thanks.
1.81

Need log10 of MIC of CCCCCCCn1c(CS(=O)(=O)c2ccc(N)cc2)nc2ccccc21 , thanks.
2.71

Continuing:
Need log10 of MIC of CCCCCCCCn1c(CS(=O)(=O)c2ccc(NC(C)=O)cc2)nc2ccccc21 , thanks.
2.71

Need log10 of MIC of CCCCCCCCCCn1c(CS(=O)(=O)c2ccc(N)cc2)nc2ccccc21 , thanks.
2.71

Need log10 of MIC of CC(=O)Nc1ccc(S(=O)(=O)Cc2nc3ccccc3n2Cc2ccc(Cl)cc2)cc1 , thanks.
2.11

Need log10 of MIC of CCCCCn1c(CS(=O)(=O)c2ccc(N)cc2)nc2ccccc21 , thanks.
2.71

Need log10 of MIC of CCn1c(CS(=O)(=O)c2ccc(NC(C)=O)cc2)nc2ccccc21 , thanks.
2.41

Need log10 of MIC of Nc1ccc(S(=O)(=O)Cc2nc3ccccc3n2CCCCCn2c3ccccc3c3ccccc32)cc1 , thanks.
1.81

Need log10 of MIC of Nc1ccc(S(=O)(=O)Cc2nc3ccccc3n2Cc2ccc(Cl)cc2)cc1 , thanks.
1.81

Need log10 of MIC of CCCCCCn1c(CS(=O)(=O)c2ccc(N)cc2)nc2ccccc21 , thanks.
2.71

----------
Target: Albumin (Homo sapiens)
Experiment: Binding affinity to human serum albumin at 273 K by modified Stern-Volmer method
Assay type: ADME
Settings: isolated protein
Known Ka of a selection of compounds
Numeric only. Scale: M⁻¹

So what Ka did CC(=O)Nc1ccc(S(=O)(=O)Cc2nc3ccccc3n2Cc2ccc(Cl)cc2Cl)cc1 get with Albumin (Homo sapiens)?
11100

Moving on to another compound below.
So what Ka did CC(=O)Nc1ccc(S(=O)(=O)Cc2nc3ccccc3n2Cc2ccc(F)cc2)cc1 get with Albumin (Homo sapiens)?
54300
